# protocolDetails: total protein half-life in vivo (active degradation + dilution); higher = more stable protein
# cond: wild type E. coli NCM3722; growth: P-lim chemostat; doubling time 6 h
Would you kindly list total protein half-life in vivo for each of these sequences?
Answer format: number, then unit.

Ask: I'd like to know its total protein half-life in vivo. The sequence in question is MQARVKWVEGLTFLGESASGHQILMDGNSGDKAPSPMEMVLMAAGGCSAIDVVSILQKGRQDVVDCEVKLTSERREEAPRLFTHINLHFIVTGRDLKDAAVARAVDLSAEKYCSVALMLEKAVNITHSYEVVAA [P0ADX1]
Reply: 5.45 h

Ask: Query (sequence): `MKRAPLITGLLLISTSCAYASSGGCGADSTSGATNYSSVVDDVTVNQTDNVTGREFTSATLSSTNWQYACSCSAGKAVKLVYMVSPVLTTTGHQTGYYKLNDSLDIKTTLQANDIPGLTTDQVVSVNTRFTQIKNNTVYSAATQTGVCQGDTSRYGPVNIGANTTFTLYVTKPFLGSMTIPKTDIAVIKGAWVDGMGSPSTGDFHDLVKLSIQGNLTAPQSCKINQGDVIKVNFGFINGQKFTTRNAMPDGFTPVDFDITYDCGDTSKIKNSLQMRIDGTTGVVDQYNLVARRRSSDNVPDVGIRIENLGGGVANIPFQNGILPVDPSGHGTVNMRAWPVNLVGGELETGKFQGTATITVIVR` ; field requested: total protein half-life in vivo
Reply: 5.42 h

Ask: Look up total protein half-life in vivo for this sequence: `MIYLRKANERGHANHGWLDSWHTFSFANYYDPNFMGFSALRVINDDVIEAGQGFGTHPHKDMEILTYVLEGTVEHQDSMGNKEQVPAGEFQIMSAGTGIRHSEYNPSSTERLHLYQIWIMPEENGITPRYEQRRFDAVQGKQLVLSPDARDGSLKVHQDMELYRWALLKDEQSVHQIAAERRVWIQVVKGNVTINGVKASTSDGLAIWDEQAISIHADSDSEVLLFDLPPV`
Reply: 5.54 h

For each of the sequences below, state total protein half-life in vivo.
1. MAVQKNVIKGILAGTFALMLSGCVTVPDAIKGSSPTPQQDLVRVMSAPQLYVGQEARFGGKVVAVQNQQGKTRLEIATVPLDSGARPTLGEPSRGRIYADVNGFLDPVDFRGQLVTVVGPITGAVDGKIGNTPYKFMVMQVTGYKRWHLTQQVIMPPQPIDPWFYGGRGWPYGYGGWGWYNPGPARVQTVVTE [P0AA91]
2. MPTKPPYPREAYIVTIEKGKPGQTVTWYQLRADHPKPDSLISEHPTAQEAMDAKKRYEDPDKE [P0AAN5]
3. MDINNKARIHWACRRGMRELDISIMPFFEHEYDSLSDDEKRIFIRLLECDDPDLFNWLMNHGKPADAELEMMVRLIQTRNRERGPVAI

Reply:
1: 6.13 h; 2: 5.3 h; 3: 4.97 h

Ask: total protein half-life in vivo lookup needed for `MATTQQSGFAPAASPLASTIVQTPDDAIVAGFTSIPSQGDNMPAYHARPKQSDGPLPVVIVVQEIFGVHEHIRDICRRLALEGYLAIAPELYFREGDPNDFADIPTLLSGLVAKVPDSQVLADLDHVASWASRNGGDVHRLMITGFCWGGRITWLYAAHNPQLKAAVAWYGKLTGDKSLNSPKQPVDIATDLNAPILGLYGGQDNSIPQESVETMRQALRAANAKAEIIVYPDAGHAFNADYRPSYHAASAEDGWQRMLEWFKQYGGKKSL` , thanks.
Reply: 4.06 h

###

Assignment: determine reported total protein half-life in vivo for the given sequences.
# protocolDetails: total protein half-life in vivo (active degradation + dilution); higher = more stable protein
# cond: wild type E. coli NCM3722; growth: N-lim chemostat; doubling time 12 h

Ask: State the recorded total protein half-life in vivo for this entry: `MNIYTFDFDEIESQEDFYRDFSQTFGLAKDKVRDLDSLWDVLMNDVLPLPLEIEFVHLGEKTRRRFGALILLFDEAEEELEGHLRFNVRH`
Reply: 10.2 h

Ask: Entry `MLARGKTNLKIEEIRMHKHHEIHRVKPLMPALCRIRQGKKVINWETHTLTVDNNQIILFPCGYEFYIENYPEAGLYLAEMLYLPIDLIESFQKLYTVTDQIRNKTSFFLPQNPELIYCWEQLKTSVSRGFSTKIQEHLAMGVLLSLGVNHVNHLLLSYSKQSLISRCYNLLLSEPGTKWTANKVARYLYISVSTLHRRLASEGVSFQSILDDVRLNNALSAIQTTVKPISEIARENGYKCPSRFTERFHNRFNITPREIRKASRE` : reported total protein half-life in vivo = ?
Reply: 7.29 h

Shift focus to the following entry.
Ask: Report total protein half-life in vivo for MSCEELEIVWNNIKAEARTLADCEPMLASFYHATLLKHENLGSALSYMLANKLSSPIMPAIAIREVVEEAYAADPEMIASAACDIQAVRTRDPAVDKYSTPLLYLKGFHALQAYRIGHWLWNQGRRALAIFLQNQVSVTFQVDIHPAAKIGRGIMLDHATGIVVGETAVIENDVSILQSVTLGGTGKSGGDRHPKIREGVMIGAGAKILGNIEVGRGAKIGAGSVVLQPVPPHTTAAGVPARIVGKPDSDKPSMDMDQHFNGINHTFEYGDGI [P0A9D4] please.
Reply: 7.88 h

###

# protocolDetails: total protein half-life in vivo (active degradation + dilution); higher = more stable protein
# cond: E. coli NCM3722 delta-clpP delta-lon delta-hslV; growth: N-lim chemostat; doubling time 6 h
Exercise: for every item that follows, state its recorded total protein half-life in vivo.
Answers are plain numbers, in h.

Illustrative cases are given below, each with its answer.
Ask: Give the measured total protein half-life in vivo of MSRRNTDAITIHSILDWIEDNLESPLSLEKVSERSGYSKWHLQRMFKKETGHSLGQYIRSRKMTEIAQKLKESNEPILYLAERYGFESQQTLTRTFKNYFDVPPHKYRMTNMQGESRFLHPLNHYNS [P0ACH5] .
Reply: 3.42

Ask: Name the recorded total protein half-life in vivo for `MAGESFILMGVSGSGKTLIGSKVAALLSAKFIDGDDLHPAKNIDKMSQGIPLSDEDRLPWLERLNDASYSLYKKNETGFIVCSSLKKQYRDILRKGSPHVHFLWLDGDYETILARMQRRAGHFMPVALLKSQFEALERPQADEQDIVRIDINHDIANVTEQCRQAVLAIRQNRICAKEGSASDQRCE` .
Reply: 4.25

Ask: # input sequence: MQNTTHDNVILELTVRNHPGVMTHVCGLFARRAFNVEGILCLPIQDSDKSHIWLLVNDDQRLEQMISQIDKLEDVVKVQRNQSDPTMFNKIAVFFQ [P0ADF8] ; wanted: its total protein half-life in vivo
Reply: 5.25

// below: total protein half-life in vivo requested for another sequence
Ask: Any idea what total protein half-life in vivo was measured for `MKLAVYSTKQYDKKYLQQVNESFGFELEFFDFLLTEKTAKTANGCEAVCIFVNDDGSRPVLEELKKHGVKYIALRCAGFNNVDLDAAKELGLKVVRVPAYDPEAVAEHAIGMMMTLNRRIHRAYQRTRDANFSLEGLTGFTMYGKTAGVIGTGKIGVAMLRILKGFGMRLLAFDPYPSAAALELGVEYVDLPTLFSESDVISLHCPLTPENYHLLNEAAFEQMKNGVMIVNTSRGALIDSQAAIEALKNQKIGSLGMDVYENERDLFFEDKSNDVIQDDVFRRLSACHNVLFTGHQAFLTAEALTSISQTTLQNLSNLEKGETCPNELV` ?
Reply: 4.95

###

Consider the following sequences; for each one, report its total protein half-life in vivo.
# protocolDetails: total protein half-life in vivo (active degradation + dilution); higher = more stable protein
# cond: E. coli NCM3722 delta-clpP delta-lon delta-hslV; growth: N-lim chemostat; doubling time 6 h
Answers are plain numbers, in h.

For each of the items listed, what is its total protein half-life in vivo?
1. MAYSKIRQPKLSDVIEQQLEFLILEGTLRPGEKLPPERELAKQFDVSRPSLREAIQRLEAKGLLLRRQGGGTFVQSSLWQSFSDPLVELLSDHPESQYDLLETRHALEGIAAYYAALRSTDEDKERIRELHHAIELAQQSGDLDAESNAVLQYQIAVTEAAHNVVLLHLLRCMEPMLAQNVRQNFELLYSRREMLPLVSSHRTRIFEAIMAGKPEEAREASHRHLAFIEEILLDRSREESRRERSLRRLEQRKN [P0ACL9]
2. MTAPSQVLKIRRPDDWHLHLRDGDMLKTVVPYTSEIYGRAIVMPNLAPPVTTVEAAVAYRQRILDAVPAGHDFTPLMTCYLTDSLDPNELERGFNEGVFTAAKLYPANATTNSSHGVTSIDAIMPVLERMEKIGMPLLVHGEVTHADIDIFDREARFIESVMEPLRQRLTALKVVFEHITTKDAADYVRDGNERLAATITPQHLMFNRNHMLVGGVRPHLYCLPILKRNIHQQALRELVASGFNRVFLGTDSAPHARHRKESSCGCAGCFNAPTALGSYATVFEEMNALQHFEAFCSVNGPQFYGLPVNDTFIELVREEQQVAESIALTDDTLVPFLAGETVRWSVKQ
3. MPELPEVETSRRGIEPHLVGATILHAVVRNGRLRWPVSEEIYRLSDQPVLSVQRRAKYLLLELPEGWIIIHLGMSGSLRILPEELPPEKHDHVDLVMSNGKVLRYTDPRRFGAWLWTKELEGHNVLTHLGPEPLSDDFNGEYLHQKCAKKKTAIKPWLMDNKLVVGVGNIYASESLFAAGIHPDRLASSLSLAECELLARVIKAVLLRSIEQGGTTLKDFLQSDGKPGYFAQELQVYGRKGEPCRVCGTPIVATKHAQRATFYCRQCQK
4. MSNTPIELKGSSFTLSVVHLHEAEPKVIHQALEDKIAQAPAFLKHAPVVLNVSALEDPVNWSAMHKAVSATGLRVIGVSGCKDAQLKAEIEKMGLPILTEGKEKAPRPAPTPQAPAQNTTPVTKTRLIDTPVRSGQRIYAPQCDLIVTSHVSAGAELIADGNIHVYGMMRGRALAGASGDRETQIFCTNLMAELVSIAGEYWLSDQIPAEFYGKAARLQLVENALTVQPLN
5. MKFKTNKLSLNLVLASSLLAASIPAFAVTGDTDQPIHIESDQQSLDMQGNVVTFTGNVIVTQGTIKINADKVVVTRPGGEQGKEVIDGYGKPATFYQMQDNGKPVEGHASQMHYELAKDFVVLTGNAYLQQVDSNIKGDKITYLVKEQKMQAFSDKGKRVTTVLVPSQLQDKNNKGQTPAQKKGN [P0ADV1]
6. MERLKRMSVFAKVVEFGSFTAAARQLQMSVSSISQTVSKLEDELQVKLLNRSTRSIGLTEAGRIYYQGCRRMLHEVQDVHEQLYAFNNTPIGTLRIGCSSTMAQNVLAGLTAKMLKEYPGLSVNLVTGIPAPDLIADGLDVVIRVGALQDSSLFSRRLGAMPMVVCAAKSYLTQYGIPEKPADLSSHSWLEYSVRPDNEFELIAPEGISTRLIPQGRFVTNDPMTLVRWLTAGAGIAYVPLMWVINEINRGELEILLPRYQSDPRPVYALYTEKDKLPLKVQVVINSLTDYFVEVGKLFQEMHGRGKEK
7. MMYHIPGVLSPQDVARFREQLEQAEWVDGRVTTGAQGAQVKNNQQVDTRSTLYAALQNEVLNAVNQHALFFAAALPRTLSTPLFNRYQNNETYGFHVDGAVRSHPQNGWMRTDLSATLFLSDPQSYDGGELVVNDTFGQHRVKLPAGDLVLYPSSSLHCVTPVTRGVRVASFMWIQSMIRDDKKRAMLFELDNNIQSLKSRYGESEEILSLLNLYHNLLREWSEI

Reply:
5.54
5.58
6.1
5.53
5.44
5.96
4.14

Need total protein half-life in vivo for each of these sequences.
1. MVKKAIVTAMAVISLFTLMGCNNRAEVDTLSPAQAAELKPMPQSWRGVLPCADCEGIETSLFLEKDGTWVMNERYLGAREEPSSFASYGTWARTADKLVLTDSKGEKSYYRAKGDALEMLDREGNPIESQFNYTLEAAQSSLPMTPMTLRGMYFYMADAATFTDCATGKRFMVANNAELERSYLAARGHSEKPVLLSVEGHFTLEGNPDTGAPTKVLAPDTAGKFYPNQDCSSLGQ
2. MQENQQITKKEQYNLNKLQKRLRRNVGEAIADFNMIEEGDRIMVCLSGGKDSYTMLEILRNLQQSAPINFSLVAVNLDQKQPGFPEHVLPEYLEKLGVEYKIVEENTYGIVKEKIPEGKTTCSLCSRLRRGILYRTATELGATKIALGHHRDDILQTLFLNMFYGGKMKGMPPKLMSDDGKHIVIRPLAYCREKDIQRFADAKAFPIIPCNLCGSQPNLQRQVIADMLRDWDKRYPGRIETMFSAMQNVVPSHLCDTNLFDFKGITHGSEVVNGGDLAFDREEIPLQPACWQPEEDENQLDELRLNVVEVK
3. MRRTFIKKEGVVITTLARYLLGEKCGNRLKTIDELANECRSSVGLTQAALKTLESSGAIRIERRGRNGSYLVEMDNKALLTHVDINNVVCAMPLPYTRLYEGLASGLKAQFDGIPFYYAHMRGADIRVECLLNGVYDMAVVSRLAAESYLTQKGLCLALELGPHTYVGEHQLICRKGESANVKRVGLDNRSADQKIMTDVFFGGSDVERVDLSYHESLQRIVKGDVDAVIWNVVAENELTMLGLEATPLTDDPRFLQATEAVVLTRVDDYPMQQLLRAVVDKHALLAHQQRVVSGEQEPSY
4. MPPRALLLVDLQNDFCAGGALAVPEGDSTVDVANRLIDWCQSRGEAVIASQDWHPANHGSFASQHGVEPYTPGQLDGLPQTFWPDHCVQNSEGAQLHPLLHQKAIAAVFHKGENPLVDSYSAFFDNGRRQKTSLDDWLRDHEIDELIVMGLATDYCVKFTVLDALQLGYKVNVITDGCRGVNIQPQDSAHAFMEMSAAGATLYTLADWEETQG

Reply:
1. 5.34
2. 5.11
3. 6.2
4. 4.67

// data source = the supplement of paper PMC11246515
